tested on: S462; assay: drug sensitivity score (DSS, CellTiter-Glo viability, 72 h) (DSS (dimensionless)); higher = more sensitive; extreme values may be limits of the assay
EXPERIMENTAL ENDPOINT: drug sensitivity score

CC(=O)N(O)CCCCCNC(=O)CCC(=O)N(O)CCCCCNC(=O)CCC(=O)N(O)CCCCCN [Deferoxamine aq] (max concentration tested 10000 nM) :: 6.82
CNC(=O)c1cc(Oc2ccc(NC(=O)Nc3ccc(Cl)c(C(F)(F)F)c3)c(F)c2)ccn1 [Regorafenib] (max concentration tested 10000 nM) :: 7.19

--- query ---
Bench note: what drug sensitivity score did CNC(=O)c1cc(Oc2ccc(NC(=O)Nc3cc(C(C)(C)C)nn3-c3ccc4ncccc4c3)c(F)c2)ccn1 [Rebastinib] (max concentration tested 1000 nM) show?
0
